- targetUnderTest: HLA A*0201 (human)
- protocolSummary: inhibition of radiolabeled probe peptide binding to purified HLA
Catalogue of binders with associated IC50
Report the figure along with its unit, number first.

Consider the following illustrative entries.
| binder | IC50 |
| --- | --- |
| FLMVLLIPEP [FLMVLLIPEP (DENV1 2210-2219)] | 31 nM |
| LMLLALIAVL [LMLLALIAVL (DENV1 2151-2160)] | 95 nM |
| TLMLLALIAV [TLMLLALIAV (DENV1 2150-2159)] | 8 nM |

Please find the next binder below.
Recorded IC50 for IILEFFLMVL [IILEFFLMVL (DENV1 2205-2214)] , please? 96 nM
